Reference for the values: ChEMBL document CHEMBL4513216

# RUN DESCRIPTION: Toxicity liver stage against HepG2, at 10uM
# Format: cell-based
# Design: test concentration 10 uM, cell line HepG2-A16-CD81EGFP
# CONDITION CONTEXT: human, HepG2-A16-CD81EGFP cells; read-out: INHIBITION
VALUE KIND: cytotoxicity at 10 µM (%)
Kindly answer with a numeric value in %, unit omitted.

| COMPOUND | cytotoxicity at 10 µM [%] |
| --- | --- |
| CCC[C@H]1CN(Cc2cc(C#N)n(C)c2C)C[C@@H]1N(C)C | -152 |
| Cc1ccsc1C(=O)N(C)Cc1ccncc1 | -4.54 |
| c1cncc(OC[C@@]23CCC[C@@H]2CN(CC2CCOCC2)C3)c1 | 7.66 |
| CCSc1ncc(CN2CC[C@@](O)(COC)C(C)(C)C2)cn1 | -4.05 |
| Cc1ccc(OCC(O)COC2CCOCC2)c(Cl)c1 (configuration not stated) | -5.27 |
| COc1cccc(COCC(=O)N2CCCC(c3nncn3C)C2)c1 (configuration not stated) | -6.36 |
| Cc1nc(CN2CCC3(C2)CN(C(=O)c2conc2C)C3)cs1 | -105 |
| CCc1nc(C)c(CC(=O)N2CCC3(CC2)OCCCC3OC)c(=O)[nH]1 (configuration not stated) | -0.506 |

Look at this compound and give its reported cytotoxicity at 10 µM. CC(C)c1nc(C2CCCN(C(=O)CN(C)S(C)(=O)=O)C2)no1 (configuration not stated)
-0.304

Find the recorded cytotoxicity at 10 µM belonging to CC(c1nc(-c2cccnc2)no1)N(C)CCCOc1ccccc1 (configuration not stated) and report it.
-2.14

Please give the measured cytotoxicity at 10 µM for this compound: COc1cccc(C(=O)NCC(O)c2cccs2)c1 (configuration not stated)
-22.4

Entry under review: CNC(=O)c1cccnc1NCCOc1ccccc1 . Reported cytotoxicity at 10 µM?
-4

###

Here, each record is paired with measured cytotoxicity at 10 µM data.
# RUN DESCRIPTION: Toxicity liver stage against HepG2, at 10uM
# Assay type: cell-based
# Parameters: test concentration 10 uM, cell line HepG2-A16-CD81EGFP
# CONDITION CONTEXT: human, HepG2-A16-CD81EGFP cells; read-out: INHIBITION
Numbers only; they are read as %.

| COMPOUND | NUMERIC VALUE |
| --- | --- |
| CCN(CCn1cccn1)Cc1nc(-c2ccoc2)oc1C | -5.48 |
| Cc1noc(C)c1CN1C[C@@H]2CN(C(=O)c3cnccn3)C[C@@H]2C1 | -1.86 |
| Cc1ccc(C(=O)N2CCC(n3cc(CN)nn3)CC2)cc1F | -3.54 |

// cytotoxicity at 10 µM lookup, key: Cc1nc(C(=O)N2CCC(c3cc(CCO)n(C)n3)C2)co1 (stereo unspecified)
-5.42

Any idea what cytotoxicity at 10 µM was measured for CN1C(=O)CC(c2cnn(C)c2)C12CCN(C(=O)c1cccn1C)CC2 (stereo unspecified) ?
-74

What measured cytotoxicity at 10 µM goes with Cc1cnn(CC2CCCN2C(=O)c2cnc(-c3ccco3)s2)c1 (stereo unspecified) ?
-7.43

So what's the measured cytotoxicity at 10 µM for this one? CC(C)CN1CC2(CCN(C(=O)C(O)c3cccc(Cl)c3)CC2)CC1=O (stereo unspecified)
-1.45

# get_value(readout='cytotoxicity at 10 µM', item= COCCC(=O)NCc1ccc(-c2ccccc2C(=O)O)cn1 )
1.92

Query: cytotoxicity at 10 µM; subject: O=c1[nH]c(NC2CCCC2)nc2nccc(-c3ccsc3)c12
-12.1

Which cytotoxicity at 10 µM value belongs to CC(C)c1nccc(-c2nccn2CCN(C)S(C)(=O)=O)n1 ?
7.53

Suppose we examine the compound CC(=O)c1ccc(C(=O)NCCCOC(C)c2ccccc2)s1 (stereo unspecified) ; what cytotoxicity at 10 µM value has been reported?
-14.1
